- PROCEDURE DETAILS: Tissue-blood distribution coefficients and volume of distribution
- CONDITION CONTEXT: whole blood, pH 7.5, Estimated volume of distribution Vd, residues in muscle, liver and blood only; exposed fish #2
ENDPOINT NAME: Vd at 7 d (L/kg)
One number for each entry, in L/kg.

Some entries whose results are on file:
>  <MOLECULE>
CCCCCCCCCCCCCCCCN [P16, hexadecylamine]

>  <REPORTED RESULT>
1.2

$$$$
>  <MOLECULE>
CCCCCCCCCCCCN [P12, Dodecylamine]

>  <REPORTED RESULT>
1.31

$$$$

Value sought for every listed molecule: Vd at 7 d.
1. CCCCCCCCCCCCCN [P13, tridecylamine]
2. CCCCCCCCCN [P9, Nonylamine]

1: 1.44; 2: 1.06
